tested on: OVCAR-3 ovarian; assay: NCI tumour cell line growth inhibition, 48 h; in the data active = GI50 below about 0.43 µM; inactive = the rest
Possible outcomes: true (1) = active, false (0) = inactive

> print(dat)
                                    compound  class.name
 1  COc1cc(C)[nH]c(=O)c1CN1CCc2c(Cl)cc([C@H](OC)C3COC3)c(Cl)c2C1=O   false (0)
 2  COc1cc2c(=O)n(CCCn3ccnc3)c3c4cc5c(cc4ccc3c2cc1OC)OCO5    true (1)
 3  O=C1/C(=C/c2ccccc2)CN(CCC(=O)N2C/C(=C\c3ccccc3)C(=O)/C(=C/c3ccccc3)C2)C/C1=C\c1ccccc1   false (0)
 4  CCC1CCCCN1C(=S)N/N=C(\C)c1ccccn1 (stereo unspecified)    true (1)
 5  NC(=O)c1cc(Cl)ccc1NC(=O)c1ccccc1-c1ccccc1    true (1)
 6  O=S(=O)(NCCCNc1cc(-c2cn(-c3ccccc3)nc2-c2cccc(O)c2)ccn1)c1cccc2ccccc12   false (0)
 7        CNC(=O)c1cncc(/C=C/c2c(C)cccc2C)c1   false (0)
 8  CCn1cc(C(=O)N/N=C/c2cccc(F)c2)c(=O)c2cc(F)c(N3CCNC(C)C3)c(F)c21 (stereo unspecified)   false (0)
 9  Cc1cccc2c1O/C(=C\c1ncc([N+](=O)[O-])n1C)C2=O    true (1)
10  Oc1cccc(Cn2c(-c3cccc(O)c3O)nc3ccccc32)c1O    true (1)
11  CCCCNC(=O)Oc1ccc2c(=O)c3sc4c(=O)c5ccccc5c(=O)c4c3c(=O)c2c1    true (1)

----------
Some molecules, each annotated with its measured TGI.
system: UACC-62 melanoma; assay: NCI tumour cell line growth inhibition, 48 h
MEASURE_NAME: TGI

> print(dat)
                                   molecule     target.system    result
1            Cc1ccc(/C=N/Nc2nncc3ccccc23)s1  UACC-62 melanoma  > 100 µM
2            NC12CC3CC4C1CC1CC2C(C3)C4(N)C1  UACC-62 melanoma  > 100 µM
3  N#CC(N=Nc1ccccc1)c1nc2ccccc2o1 (configuration not stated)  UACC-62 melanoma  > 100 µM
4  COc1cc2c3c(n(Cc4ccccc4)c(=O)c2cc1OC)-c1ccccc1C3=O  UACC-62 melanoma  > 100 µM
5              Nc1nc(N)c2nc(-c3ccco3)cnc2n1  UACC-62 melanoma  > 100 µM
6  CCCC1C(=O)C(CC)Cc2c(OC)ccc(OC)c21 (configuration not stated)  UACC-62 melanoma  > 100 µM
7  CCOC(=O)/C=C(\N=P(c1ccccc1)(c1ccccc1)c1ccccc1)C(F)(F)C(F)(F)C(F)(F)C(F)(F)C(F)(F)F  UACC-62 melanoma  > 100 µM

----------
test system: K-562 leukemia; assay: NCI tumour cell line growth inhibition, 48 h
Some molecules, each annotated with its measured TGI.
MEASURE_NAME: TGI

> print(dat)
                                   molecule  measure.name    result
1      O=c1[nH]c(Nc2cccc(Br)c2)nc2nc[nH]c12           TGI  > 100 µM
2  CCC(c1ccc(OC)cc1)C(CC)c1ccc(O)c(CN2CCCC2)c1 (stereo not drawn)           TGI   5.59 µM
3  C#Cc1cccc(Nc2ncnc3ccc(-c4cnc(Cl)c(NS(C)(=O)=O)c4)cc23)c1           TGI  > 100 µM
